Assay summary: yeast TOR pathway RPL19A-GFP modulators, primary screen, cell-based, S. cerevisiae, multiplex flow cytometry (AID 1862);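 note: lower values mimic rapamycin by blocking the RPL19A rise seen in DMSO cells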
Experimental context: S. cerevisiae RPL19A-GFP strain, flow cytometry fluorescence, 3 h; at 10 µM; active compounds read low
Records with an inconclusive call do not appear.
Listing: percent of DMSO control GFP of selected compounds
Lab book: enter the figure in %, no units written.

Solved cases (4 shown):
{"columns": ["Compound", "Units of measure", "percent of DMSO control GFP"],
 "data": [
  ["Cn1c(=O)c2c(ncn2CC(O)CO)n(C)c1=O (stereo not drawn)", "%", 100],
  ["O=C1OCCN1/N=C/c1ccc([N+](=O)[O-])o1", "%", 103],
  ["CC[n+]1c(C)sc2cc(C)ccc21", "%", 96.4],
  ["NCCOc1ccccc1OCCN", "%", 102]
]}

Now for the compound whose percent of DMSO control GFP we want.
Give its percent of DMSO control GFP value. Item: "O=c1ccn([C@@H]2O[C@H](CO)[C@@H](O)[C@H]2O)c(=O)[nH]1"
102

====

Assay summary: modulators of AGP1-GFP expression in yeast TOR pathway, primary screen, cell-based, multiplex flow cytometry, S. cerevisiae (AID 1887);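 note: AGP1-GFP fusion strain of S. cerevisiae within a five-strain barcoded multiplex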
Experimental context: 3 h, at 10 µM, active compounds read high
Inconclusive results are not listed.
Reported metric: GFP response, % of DMSO (%)
Lab book: enter the figure in %, no units written.

Solved cases (5 shown):
{"columns": ["Compound", "GFP response, % of DMSO [%]"],
 "data": [
  ["Nc1nnc(-c2cccc(Cl)c2Cl)c(N)n1", 103],
  ["O=[N+]([O-])c1cc(/C=N/n2cnnc2)ccc1N1CCCC1", 101],
  ["CC(=O)Nc1nc(CCC(C)C)cc2c1c(=O)oc1ccccc12", 88.6],
  ["CN(C)CCOC(C)(c1ccccc1)c1ccccn1 (centres undefined)", 93.7],
  ["CCOC(=O)Nc1ccc2c(c1)N(C(=O)CCN1CCOCC1)c1ccccc1S2", 109]
]}

Give its GFP response, % of DMSO value. Item: "CCOC(=O)C1(CCCc2ccccc2)CCN(C2CCN(C(C)=O)CC2)CC1"
92.4

Give its GFP response, % of DMSO value. Item: "Nc1ccc(S(=O)(=O)c2ccc(N)cc2)cc1"
99.3

Give its GFP response, % of DMSO value. Item: COc1ccc(C2(CCN=Cc3ccc(N(C)C)cc3)CCOC(C)(C)C2)cc1 (centres undefined)
95.2

====

Listing: GFP response vs DMSO of selected molecules
Assay summary: RPL19A-GFP modulators, yeast TOR pathway, confirmation, cell-based, S. cerevisiae, flow cytometry, cherry picks, mother/daughter gates (AID 2270)
Experimental context: S. cerevisiae RPL19A-GFP strain, 3 h, at 10 µM, active compounds read low, 100 = same GFP as DMSO wells
Lab book: enter the figure in %, no units written.

Give its GFP response vs DMSO value. Item: CCOc1ccccc1N1C(=O)CC(Sc2ncccc2C(=O)O)C1=O (centres undefined)
101

Give its GFP response vs DMSO value. Item: "COc1ccc(/C=C2\Sc3ccc(C(=O)N4CCc5ccccc5C4)cc3N(C)C2=O)cc1"
98.4

Give its GFP response vs DMSO value. Item: "CN1/C(=C\C(=O)c2cccc(S(=O)(=O)N3CCCCC3)c2)C(C)(C)c2ccccc21"
96.8

Give its GFP response vs DMSO value. Item: "O=C(OCc1cc(Cl)ccc1OC(F)F)c1ccc([N+](=O)[O-])o1"
97

Give its GFP response vs DMSO value. Item: COc1ccc(C2N(c3ccc(Cl)cc3)N=C(C(C)=O)N(C)N2C(C)=O)cc1 (centres undefined)
100

Give its GFP response vs DMSO value. Item: "CC(=O)c1ccc(N2CCN(C(=O)c3ccc(Br)cc3)CC2)c(F)c1"
111

Give its GFP response vs DMSO value. Item: "COc1ccc(C(=O)NNC(=S)NC(=O)/C=C/c2cccs2)cc1"
106

Give its GFP response vs DMSO value. Item: "O=C(O)Cc1csc(-c2cccc(Oc3ccccc3)c2)n1"
100

Give its GFP response vs DMSO value. Item: COc1ccc(-c2nc3cc(C)ccn3c2NCC2CCCO2)cc1OC (centres undefined)
94.8

Attribution: PubChem BioAssay
